Source listed as ChEMBL document CHEMBL4680222.

- System name: NAD-dependent protein deacetylase sirtuin-7 (Homo sapiens)
- Assay name: Substrate activity at human N-terminal His-tagged SIRT7 (68 to 354 residues) expressed in Escherichia coli at 5 uM measured after 2 hrs in presence of NAD+ and trypsin by fluorescence assay
*1 amine or outer side, *2 acyl side, *3 side chain or, on linkers, in order; H or OH if unused. Where a SMILES comes first, the peptide text is derived from it. The star is where a group is joined. AMC = Cc1cc(=O)oc2cc(N*)ccc12; Suc = O=C(CCC(=O)[*:2])[*:1]; Decanoyl = CCCCCCCCCC(=O)*
Reported endpoint: Activity (RFU)

Consider the following illustrative entries.
CC(=O)NCCCC[C@H](NC(=O)[C@H](CCCNC(=N)N)NC(=O)[C@H](CO)NC(=O)[C@H](CC(N)=O)NC(C)=O)C(=O)Nc1ccc2c(C)cc(=O)oc2c1 (Ac-NSRK(Ac)-{AMC})	0.32
CC[C@H](C)[C@H](NC(C)=O)C(=O)N[C@@H](CCCNC(=N)N)C(=O)N[C@H](C(=O)N[C@@H](CCCCNC(=O)CCC(=O)O)C(=O)Nc1ccc2c(C)cc(=O)oc2c1)[C@@H](C)CC (Ac-IRIK(Suc)-{AMC})	0.34

I. CC[C@H](C)[C@H](NC(=O)[C@H](CC(C)C)NC(=O)[C@H](CCCNC(=N)N)NC(C)=O)C(=O)N[C@@H](CCCCNC(C)=O)C(=O)Nc1ccc2c(C)cc(=O)oc2c1 (Ac-RLIK(Ac)-{AMC})
II. CCCCCCCCCC(=O)NCCCC[C@H](NC(=O)[C@@H](NC(=O)[C@H](CO)NC(=O)[C@H](CO)NC(C)=O)[C@@H](C)CC)C(=O)Nc1ccc2c(C)cc(=O)oc2c1 (Ac-SSIK(Decanoyl)-{AMC})
III. CCCCCCCCCC(=O)NCCCC[C@H](NC(=O)[C@H](CC(=O)O)NC(=O)[C@@H](NC(=O)[C@H](CCC(=O)O)NC(C)=O)[C@@H](C)O)C(=O)Nc1ccc2c(C)cc(=O)oc2c1 (Ac-ETDK(Decanoyl)-{AMC})
Query :: Ascending by Activity, please: list the molecules accordingly. In plain terms: list the labels in the order you were asked to.
Result :: III, II, I

----------
- System name: NAD-dependent protein deacetylase sirtuin-2 (Homo sapiens)
- Sequence (whole entry): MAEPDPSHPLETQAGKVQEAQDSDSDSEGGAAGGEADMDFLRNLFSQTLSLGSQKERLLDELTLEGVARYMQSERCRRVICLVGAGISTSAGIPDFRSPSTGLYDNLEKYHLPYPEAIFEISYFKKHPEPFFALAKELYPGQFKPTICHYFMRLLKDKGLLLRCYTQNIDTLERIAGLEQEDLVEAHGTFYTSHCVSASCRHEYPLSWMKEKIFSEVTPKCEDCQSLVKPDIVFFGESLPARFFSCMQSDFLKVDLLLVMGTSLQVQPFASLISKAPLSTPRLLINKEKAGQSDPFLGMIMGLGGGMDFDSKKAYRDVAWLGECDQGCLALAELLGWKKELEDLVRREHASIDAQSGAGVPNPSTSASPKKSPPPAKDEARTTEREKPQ
- Assay name: Substrate activity at human N-terminal His-tagged SIRT2 (56 to 356 residues) expressed in Escherichia coli at 0.5 uM measured after 2 hrs in presence of NAD+ and trypsin by fluorescence assay
*1 amine or outer side, *2 acyl side, *3 side chain or, on linkers, in order; H or OH if unused. Where a SMILES comes first, the peptide text is derived from it. The star is where a group is joined. AMC = Cc1cc(=O)oc2cc(N*)ccc12; Suc = O=C(CCC(=O)[*:2])[*:1]; Decanoyl = CCCCCCCCCC(=O)*
Reported endpoint: Activity (RFU)

Consider the following illustrative entries.
CC(=O)NCCCC[C@H](NC(=O)[C@H](CCCNC(=N)N)NC(=O)[C@H](CO)NC(=O)[C@H](CC(N)=O)NC(C)=O)C(=O)Nc1ccc2c(C)cc(=O)oc2c1 (Ac-NSRK(Ac)-{AMC})	0.23
CCCCCCCCCC(=O)NCCCC[C@H](NC(=O)[C@H](CCC(N)=O)NC(=O)[C@@H](NC(=O)[C@H](CCCCN)NC(C)=O)C(C)C)C(=O)Nc1ccc2c(C)cc(=O)oc2c1 (Ac-KVQK(Decanoyl)-{AMC})	1.68
CC(=O)N[C@@H](CO)C(=O)N[C@@H](CC(C)C)C(=O)NCC(=O)N[C@@H](CCCCNC(=O)CCC(=O)O)C(=O)Nc1ccc2c(C)cc(=O)oc2c1 (Ac-SLGK(Suc)-{AMC})	0.24

P. CCCCCCCCCC(=O)NCCCC[C@H](NC(=O)[C@H](CCCNC(=N)N)NC(=O)[C@H](C)NC(=O)[C@@H](NC(C)=O)[C@@H](C)O)C(=O)Nc1ccc2c(C)cc(=O)oc2c1 (Ac-TARK(Decanoyl)-{AMC})
Q. CCCCCCCCCC(=O)NCCCC[C@H](NC(=O)[C@H](CC(=O)O)NC(=O)[C@@H](NC(=O)[C@H](CCC(=O)O)NC(C)=O)[C@@H](C)O)C(=O)Nc1ccc2c(C)cc(=O)oc2c1 (Ac-ETDK(Decanoyl)-{AMC})
Query :: For P and Q , which recorded Activity is lower? Respond with the label that goes with your answer.
Result :: P
(P: 0.25 RFU, Q: 2.97 RFU)

----------
- System name: NAD-dependent protein deacetylase sirtuin-2 (Homo sapiens) (UniProt Q8IXJ6)
- Assay name: Substrate activity at human N-terminal His-tagged SIRT2 (56 to 356 residues) expressed in Escherichia coli at 50 uM measured after 2 hrs in presence of NAD+ and trypsin by fluorescence assay
*1 amine or outer side, *2 acyl side, *3 side chain or, on linkers, in order; H or OH if unused. Where a SMILES comes first, the peptide text is derived from it. The star is where a group is joined. AMC = Cc1cc(=O)oc2cc(N*)ccc12; Suc = O=C(CCC(=O)[*:2])[*:1]; Decanoyl = CCCCCCCCCC(=O)*
Reported endpoint: Activity (RFU)

Consider the following illustrative entries.
CC(=O)NCCCC[C@H](NC(=O)[C@H](CCCNC(=N)N)NC(=O)[C@H](CO)NC(=O)[C@H](CC(N)=O)NC(C)=O)C(=O)Nc1ccc2c(C)cc(=O)oc2c1 (Ac-NSRK(Ac)-{AMC})	0.52
CC(=O)NCCCC[C@H](NC(=O)[C@H](CO)NC(=O)[C@H](Cc1ccccc1)NC(=O)[C@H](CC(=O)O)NC(C)=O)C(=O)Nc1ccc2c(C)cc(=O)oc2c1 (Ac-DFSK(Ac)-{AMC})	6.75
CC(=O)NCCCC[C@H](NC(=O)[C@H](CC(C)C)NC(=O)[C@H](CCCCN)NC(=O)[C@H](Cc1ccc(O)cc1)NC(C)=O)C(=O)Nc1ccc2c(C)cc(=O)oc2c1 (Ac-YKLK(Ac)-{AMC})	25.2
CC(=O)N[C@@H](CO)C(=O)N[C@@H](CC(C)C)C(=O)NCC(=O)N[C@@H](CCCCNC(=O)CCC(=O)O)C(=O)Nc1ccc2c(C)cc(=O)oc2c1 (Ac-SLGK(Suc)-{AMC})	1.03
CC(=O)NCCCC[C@H](NC(=O)[C@H](CCCCN)NC(=O)[C@H](Cc1cnc[nH]1)NC(=O)[C@H](CCCNC(=N)N)NC(C)=O)C(=O)Nc1ccc2c(C)cc(=O)oc2c1 (Ac-RHKK(Ac)-{AMC})	2.64
CCCCCCCCCC(=O)NCCCC[C@H](NC(=O)[C@@H](NC(=O)[C@H](CO)NC(=O)[C@H](CO)NC(C)=O)[C@@H](C)CC)C(=O)Nc1ccc2c(C)cc(=O)oc2c1 (Ac-SSIK(Decanoyl)-{AMC})	13.5
CC[C@H](C)[C@H](NC(C)=O)C(=O)N[C@@H](CCCNC(=N)N)C(=O)N[C@H](C(=O)N[C@@H](CCCCNC(=O)CCC(=O)O)C(=O)Nc1ccc2c(C)cc(=O)oc2c1)[C@@H](C)CC (Ac-IRIK(Suc)-{AMC})	1.03
CCCCCCCCCC(=O)NCCCC[C@H](NC(=O)[C@H](CCCNC(=N)N)NC(=O)[C@H](CC(C)C)NC(=O)[C@H](CC(=O)O)NC(C)=O)C(=O)Nc1ccc2c(C)cc(=O)oc2c1 (Ac-DLRK(Decanoyl)-{AMC})	2.6

a. CC(=O)N[C@@H](Cc1cnc[nH]1)C(=O)N[C@@H](Cc1ccccc1)C(=O)N[C@@H](CO)C(=O)N[C@@H](CCCCNC(=O)CCC(=O)O)C(=O)Nc1ccc2c(C)cc(=O)oc2c1 (Ac-HFSK(Suc)-{AMC})
b. CCCCCCCCCC(=O)NCCCC[C@H](NC(=O)[C@H](CCCCN)NC(=O)[C@@H]1CCCN1C(=O)[C@H](CC(N)=O)NC(C)=O)C(=O)Nc1ccc2c(C)cc(=O)oc2c1 (Ac-NPKK(Decanoyl)-{AMC})
c. CCCCCCCCCC(=O)NCCCC[C@H](NC(=O)[C@H](CCC(N)=O)NC(=O)[C@@H](NC(=O)[C@H](CCCCN)NC(C)=O)C(C)C)C(=O)Nc1ccc2c(C)cc(=O)oc2c1 (Ac-KVQK(Decanoyl)-{AMC})
d. CC(=O)NCCCC[C@H](NC(=O)[C@H](CCCNC(=N)N)NC(=O)[C@H](C)NC(=O)[C@@H](NC(C)=O)[C@@H](C)O)C(=O)Nc1ccc2c(C)cc(=O)oc2c1 (Ac-TARK(Ac)-{AMC})
e. CCCCCCCCCC(=O)NCCCC[C@H](NC(=O)[C@H](CC(=O)O)NC(=O)[C@@H](NC(=O)[C@H](CCC(=O)O)NC(C)=O)[C@@H](C)O)C(=O)Nc1ccc2c(C)cc(=O)oc2c1 (Ac-ETDK(Decanoyl)-{AMC})
Query :: Reorder: Activity, max to min. In plain terms: list the labels in the order you were asked to.
Result :: e, b, c, a, d
